Assay: Pharmacokinetic study of Example 1 in mouse (IV, IP, PO)
Format: in vivo, Male C57BL/6 Mouse
Details: male, C57BL/6, mouse, plasma, ip, 30 mg/kg, IP 30 mg/kg; individual mice M4-M6; read-out: Tmax
Description: Species: Male C57BL/6 Mouse, fasted. PK/PD testing of the compound was performed in mice, after IP, IV, or oral administration.

compoundStructureString	scaleUnit	Tmax
Cc1ccc(Nc2nc(N/N=C/c3c[nH]c4ccccc34)nc(N3CCOCC3)n2)cc1	h	1

====

test: Pharmacokinetic study of Example 1 in mouse (IV, IP, PO); type: in vivo, Male C57BL/6 Mouse; conditions: male, C57BL/6, mouse, plasma, po, 30 mg/kg, PO 30 mg/kg; 2.00 h; mean

compoundStructureString	concentration at 2 h, ng/mL
Cc1ccc(Nc2nc(N/N=C/c3c[nH]c4ccccc34)nc(N3CCOCC3)n2)cc1	30.5

====

experiment: Pharmacokinetic study of Example 3 in mouse (IV, IP); format: in vivo, C57 Mouse; details: C57, mouse, plasma, iv, 5 mg/kg, 5 mg/kg IV; individual animals 101M-103M; read-out: AUCINF_pred

molecule	scaleUnit	AUC(0-inf)
Cc1ccc(Nc2nc(N/N=C/c3c[nH]c4ccccc34)cc(N3CCOCC3)n2)cc1 [Example 3]	ng·h/mL	5500

====

system: U251; assay: U251 Vacuolization Assay (24h); format: cell-based; details: Homo sapiens, U-251
pEC50: −log10 of the molar value.

molecule	pEC50
COCCN(c1nc(N/N=C/c2c[nH]c3ccccc23)nc(Nc2ccc(C)cc2)n1)C(C)C	5.00 to 6.00
CN(C)c1ccc(Nc2nc(N/N=C/c3c[nH]c4ccccc34)nc(N3CCOCC3)n2)cc1	≥ 6.00
Cc1ccc(Nc2nc(N/N=C/c3c[nH]c4ccccc34)nc(N3CCOCC3)n2)nc1	≥ 6.00
FC(F)(F)c1ccc(Nc2nc(N/N=C/c3c[nH]c4ccccc34)nc(N3CCOCC3)n2)cc1	≥ 6.00
COCCN(CCOC)c1nc(N/N=C/c2c[nH]c3ccccc23)nc(Nc2ccc(C)cc2)n1	< 4.30
Cc1ccc(Nc2nc(N/N=C/c3c[nH]c4ccccc34)nc(N3CCOCC3C)n2)cc1 (centres unmarked)	≥ 6.00
Cc1ccc(Nc2nc(N/N=C\c3csc4ccccc34)nc(N3CCOCC3)n2)cc1	5.00 to 6.00
Cc1ccc(Nc2nc(N/N=C/c3ccccn3)nc(N3CCOCC3)n2)cc1	5.00 to 6.00

====

Assay: Pharmacokinetic study of Example 3 in mouse (IV, IP)
Type: in vivo, C57 Mouse
Conditions: C57, mouse, plasma, intravenous, 5 mg/kg, 5 mg/kg IV; 0.25 h; mean; read-out: Plasma concentrations
Method: Species: C57 Mouse. Dose Route: IV&IP. Formulation Vehicle: IV&IP: 10% DMSO/30% PEG400/60% Saline. Dose Level: IV (5 mg/kg) and IP (30 mg/kg). Dose Volume: IV (5 mL/kg) and IP (10 mL/kg). Formulation concentrations: IV (1 mg/mL) and IP (3 mg/mL). LLOQ: IV (2 ng/mL) and IP (10 ng/mL).

molecule	concentration at 0.25 h
Cc1ccc(Nc2nc(N/N=C/c3c[nH]c4ccccc34)cc(N3CCOCC3)n2)cc1 [Example 3]	4530 ng/mL

====

assay: Pharmacokinetic study of Example 1 in mouse (IV, IP, PO); type: in vivo, Male C57BL/6 Mouse; settings: male, C57BL/6, mouse, plasma, iv, 5 mg/kg, IV 5 mg/kg; 0.500 h; individual mice M1-M3

compoundStructureString	concentration at 0.5 h / ng/mL
Cc1ccc(Nc2nc(N/N=C/c3c[nH]c4ccccc34)nc(N3CCOCC3)n2)cc1	832

====

experiment: Pharmacokinetic study of Example 1 in mouse (IV, IP, PO); type: in vivo, Male C57BL/6 Mouse; settings: male, C57BL/6, mouse, plasma, po, 30 mg/kg, PO 30 mg/kg; 4.00 h; mean

compoundStructureString	scaleUnit	concentration at 4 h
Cc1ccc(Nc2nc(N/N=C/c3c[nH]c4ccccc34)nc(N3CCOCC3)n2)cc1	ng/mL	7.49

====

assay: Pharmacokinetic study of Example 3 in mouse (IV, IP); format: in vivo, C57 Mouse; settings: C57, mouse, plasma, intraperitoneal, 30 mg/kg, 30 mg/kg IP; 24.00 h; individual animals 201M-203M; read-out: Plasma concentrations
measuredMetric: concentration at 24 h (µg/mL)

compound	measuredMetric	scaleUnit	valueReported
Cc1ccc(Nc2nc(N/N=C/c3c[nH]c4ccccc34)cc(N3CCOCC3)n2)cc1 [Example 3]	concentration at 24 h	µg/mL	0.107

====

assay: Pharmacokinetic study of Example 1 in mouse (IV, IP, PO); type: in vivo, Male C57BL/6 Mouse; settings: male, C57BL/6, mouse, plasma, iv, 5 mg/kg, IV 5 mg/kg; mean; read-out: MRT0-last
measuredMetric: MRT last (min)

compoundStructureString	valueReported
Cc1ccc(Nc2nc(N/N=C/c3c[nH]c4ccccc34)nc(N3CCOCC3)n2)cc1	52.9

====

assay: Pharmacokinetic study of Example 1 in mouse (IV, IP, PO); type: in vivo, Male C57BL/6 Mouse; details: male, C57BL/6, mouse, plasma, po, 30 mg/kg, PO 30 mg/kg; mean

compound	AUC(0-t)
Cc1ccc(Nc2nc(N/N=C/c3c[nH]c4ccccc34)nc(N3CCOCC3)n2)cc1 [Example 1]	0.188 µg·h/mL

====

test: Pharmacokinetic study of Example 3 in mouse (IV, IP); format: in vivo, C57 Mouse; conditions: C57, mouse, plasma, ip, 30 mg/kg, 30 mg/kg IP; mean; read-out: Cmax

compound	Cmax (ng/mL)
Cc1ccc(Nc2nc(N/N=C/c3c[nH]c4ccccc34)cc(N3CCOCC3)n2)cc1 [Example 3]	3270

====

experiment: Pharmacokinetic study of Example 1 in mouse (IV, IP, PO); assay type: in vivo, Male C57BL/6 Mouse; conditions: male, C57BL/6, mouse, plasma, iv, 5 mg/kg, IV 5 mg/kg; 2.00 h; individual mice M1-M3
measuredMetric: concentration at 2 h (ng/mL)

molecule	valueReported
Cc1ccc(Nc2nc(N/N=C/c3c[nH]c4ccccc34)nc(N3CCOCC3)n2)cc1 [Example 1]	176

====

test: Pharmacokinetic study of Example 3 in mouse (IV, IP); format: in vivo, C57 Mouse; conditions: C57, mouse, plasma, intraperitoneal, 30 mg/kg, 30 mg/kg IP; 1.00 h; mean; read-out: Plasma concentrations
measuredMetric: concentration at 1 h (ng/mL)

compoundStructureString	valueReported
Cc1ccc(Nc2nc(N/N=C/c3c[nH]c4ccccc34)cc(N3CCOCC3)n2)cc1	3030

====

test: Pharmacokinetic study of Example 1 in mouse (IV, IP, PO); assay type: in vivo, Male C57BL/6 Mouse; settings: male, C57BL/6, mouse, plasma, iv, 5 mg/kg, IV 5 mg/kg; 2.00 h; mean
measuredMetric: concentration at 2 h (ng/mL)

compoundStructureString	scaleUnit	valueReported
Cc1ccc(Nc2nc(N/N=C/c3c[nH]c4ccccc34)nc(N3CCOCC3)n2)cc1	ng/mL	183

====

assay: Pharmacokinetic study of Example 1 in mouse (IV, IP, PO); assay type: in vivo, Male C57BL/6 Mouse; conditions: male, C57BL/6, mouse, plasma, ip, 30 mg/kg, IP 30 mg/kg; 2.00 h; mean

compound	concentration at 2 h / µg/mL
Cc1ccc(Nc2nc(N/N=C/c3c[nH]c4ccccc34)nc(N3CCOCC3)n2)cc1 [Example 1]	0.444

====

test: Pharmacokinetic study of Example 1 in mouse (IV, IP, PO); assay type: in vivo, Male C57BL/6 Mouse; details: male, C57BL/6, mouse, plasma, ip, 30 mg/kg, IP 30 mg/kg; 6.00 h; individual mice M4-M6

compound	concentration at 6 h / ng/mL
Cc1ccc(Nc2nc(N/N=C/c3c[nH]c4ccccc34)nc(N3CCOCC3)n2)cc1 [Example 1]	97.8

====

assay: Pharmacokinetic study of Example 1 in mouse (IV, IP, PO); assay type: in vivo, Male C57BL/6 Mouse; conditions: male, C57BL/6, mouse, plasma, po, 30 mg/kg, PO 30 mg/kg; 6.00 h; individual mice M7-M9

compoundStructureString	concentration at 6 h / µg/mL
Cc1ccc(Nc2nc(N/N=C/c3c[nH]c4ccccc34)nc(N3CCOCC3)n2)cc1	0.011

====

EC50: recorded values
system: U251; experiment: U251 Vacuolization Assay (24h); format: cell-based; details: Homo sapiens, U-251

compoundStructureString	EC50
Cc1ccc(Nc2nc(N/N=C\c3cccnc3)nc(N3CCOCC3)n2)cc1	1 to 10 µM
Cc1ccc(Nc2cc(N/N=C/c3c[nH]c4ccccc34)nc(N3CCOCC3)n2)cc1	1 to 10 µM
Cc1ccc(Nc2cc(-n3ncc4c5ccccc5[nH]c43)nc(N3CCOCC3)n2)cc1	10 to 50 µM
Brc1ccc(Nc2nc(N/N=C/c3c[nH]c4ccccc34)nc(N3CCOCC3)n2)cc1	≤ 1 µM
Cc1ccc(Nc2nc(N/N=C/c3c[nH]c4ccccc34)nc(N3CCCCC3)n2)cc1	> 50 µM
Cc1ccc(Nc2nc(N/N=C/c3cc4ccccc4[nH]3)nc(N3CCOCC3)n2)cc1	1 to 10 µM
CCN(C)c1nc(N/N=C/c2c[nH]c3ccccc23)nc(Nc2ccc(C)cc2)n1	> 50 µM
O=[N+]([O-])c1ccc(Nc2nc(N/N=C/c3c[nH]c4ccccc34)nc(N3CCOCC3)n2)cc1	≤ 1 µM
Cc1ccc(Nc2nc(N/N=C/c3ccncc3)nc(N3CCOCC3)n2)cc1	1 to 10 µM
CS(=O)(=O)Nc1ccc(Nc2nc(N/N=C/c3c[nH]c4ccccc34)nc(N3CCOCC3)n2)cc1	≤ 1 µM
Cc1ccc(Nc2nc(N/N=C\c3coc4ccccc34)nc(N3CCOCC3)n2)cc1	> 50 µM
Cc1ccc(Nc2nc(N/N=C/c3c[nH]c4ccccc34)nc(N3CCNCC3)n2)cc1	> 50 µM
Cc1ccc(Nc2nc(NCCc3c[nH]c4ccccc34)nc(N3CCOCC3)n2)cc1	> 50 µM
Cc1ccc(Nc2nc(N/N=C/c3c[nH]c4ccccc34)nc(N3CCC3)n2)cc1	> 50 µM
Cc1ccc(Nc2nc(N/N=C/c3c[nH]c4ccccc34)nc(N3CCC(O)CC3)n2)cc1	> 50 µM
Cc1ccc(Nc2nc(N/N=C/c3c[nH]c4ccccc34)nc(N3CCN(C)CC3)n2)cc1	> 50 µM
Fc1ccc(Nc2nc(N/N=C/c3c[nH]c4ccccc34)nc(N3CCOCC3)n2)cc1	≤ 1 µM

meta.source: patent US12030896B2
